study_target: peroxidase (Coprinopsis cinerea)
measurement_notes: Effects of inhibitors, metal ions and metal chelating agents on peroxidase activity
Format: biochemical, Coprinus macrorhizus K-1330
recorded_conditions: peroxidase, 1 min, 1000 µM
# Lookup of reported Relative activity keyed by entry
reported_property: Relative activity (%)

[[record]]
molecule = "O=S(=O)(F)Cc1ccccc1 [PMSF, Phenylmethylsulfonyl fluoride]"
reported_property = "Relative activity"
units_text = "%"
observed_result = 98

[[record]]
molecule = "O=S(=O)([O-])[O-].[Cu+2]"
reported_property = "Relative activity"
units_text = "%"
observed_result = 105

[[record]]
molecule = "[Cl][Mn][Cl]"
reported_property = "Relative activity"
units_text = "%"
observed_result = 86

[[record]]
molecule = "[Cl][Fe]([Cl])[Cl]"
reported_property = "Relative activity"
units_text = "%"
observed_result = 107

[[record]]
molecule = "[Cl][Hg][Cl]"
reported_property = "Relative activity"
units_text = "%"
observed_result = 6

[[record]]
molecule = "O=C(O)c1cc[c]([Hg][Cl])cc1"
reported_property = "Relative activity"
units_text = "%"
observed_result = 98

[[record]]
molecule = "[F-].[Na+] [Sodium fluoride]"
reported_property = "Relative activity"
units_text = "%"
observed_result = 103

[[record]]
molecule = "[Cl][Sn][Cl]"
reported_property = "Relative activity"
units_text = "%"
observed_result = 92

[[record]]
molecule = "O=S(=O)([O-])[O-].[Ni+2]"
reported_property = "Relative activity"
units_text = "%"
observed_result = 92

[[record]]
molecule = "[Ba+2].[Cl-].[Cl-]"
reported_property = "Relative activity"
units_text = "%"
observed_result = 96

[[record]]
molecule = "[Cl-].[Cl-].[Zn+2]"
reported_property = "Relative activity"
units_text = "%"
observed_result = 85

[[record]]
molecule = "[Cl-].[Cl-].[Co+2]"
reported_property = "Relative activity"
units_text = "%"
observed_result = 98


----------
# Lookup of reported Relative activity keyed by entry
study_target: peroxidase (Coprinopsis cinerea)
measurement_notes: Specificity for hydrogen donors prepared by combining 4-AA with various compounds
Type: biochemical, Coprinus macrorhizus K-1330
recorded_conditions: hydrogen donor combined with 4-AA; measured at 520 nm; phenol = 100
reported_property: Relative activity

[[record]]
smi = "Oc1ccc(Br)cc1Br"
observed_result = "47%"

[[record]]
smi = "Oc1c(Cl)cccc1Cl"
observed_result = "154%"

[[record]]
smi = "Oc1c(Cl)cc(Cl)cc1Cl"
observed_result = "96%"

[[record]]
smi = "Oc1ccc(Cl)cc1Cl"
observed_result = "115%"


----------
study_target: peroxidase (Coprinopsis cinerea, UniProt P28314)
measurement_notes: Effects of inhibitors, metal ions and metal chelating agents on peroxidase activity
Assay type: biochemical, Coprinus macrorhizus K-1330
recorded_conditions: 1 min, read-out: Relative activity
# Lookup of reported activity at 1000 µM keyed by entry
reported_property: activity at 1000 µM (%)

[[record]]
compound = "O=C(O)CI [Iodoacetic acid]"
units_text = "%"
observed_result = 100

[[record]]
compound = "NC(N)=S [Thiourea]"
units_text = "%"
observed_result = 57

[[record]]
compound = "c1ccc(-c2ccccn2)nc1 [α,α'-Dipyridyl]"
units_text = "%"
observed_result = 103

[[record]]
compound = "O=C(O)CN(CCN(CC(=O)O)CC(=O)O)CC(=O)O [EDTA]"
units_text = "%"
observed_result = 97


----------
# Lookup of reported Relative activity keyed by entry
study_target: peroxidase (Coprinopsis cinerea)
Sequence (P28314 21-363): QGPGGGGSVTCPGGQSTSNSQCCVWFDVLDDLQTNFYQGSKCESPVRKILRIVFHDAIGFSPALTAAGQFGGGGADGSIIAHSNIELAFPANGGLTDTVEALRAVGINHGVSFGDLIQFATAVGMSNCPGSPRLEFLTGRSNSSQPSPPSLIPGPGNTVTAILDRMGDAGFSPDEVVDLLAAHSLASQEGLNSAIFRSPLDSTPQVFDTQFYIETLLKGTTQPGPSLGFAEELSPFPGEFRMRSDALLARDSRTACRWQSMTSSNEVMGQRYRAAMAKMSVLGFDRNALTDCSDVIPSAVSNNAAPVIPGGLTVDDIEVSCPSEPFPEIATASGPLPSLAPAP
measurement_notes: Specificity for hydrogen donors prepared by combining 4-AA with various compounds
Assay type: biochemical, Coprinus macrorhizus K-1330
recorded_conditions: hydrogen donor combined with 4-AA; measured at 500 nm; phenol = 100
reported_property: Relative activity (%)

[[record]]
compound = "Oc1ccc(O)cc1 [Hydroquinone]"
units_text = "%"
observed_result = 10

[[record]]
compound = "Oc1ccccc1O"
units_text = "%"
observed_result = 58

[[record]]
compound = "Oc1cccc(O)c1"
units_text = "%"
observed_result = 10

[[record]]
compound = "Oc1cccc2ccccc12"
units_text = "%"
observed_result = 18

[[record]]
compound = "Oc1ccccc1"
units_text = "%"
observed_result = 100

